Taken from patent US20180057604A1.

# tested.system: BACE1 in primary mouse cortical neurons (mouse, UniProt P56818 46-501)
# Sequence (P56818 46-501): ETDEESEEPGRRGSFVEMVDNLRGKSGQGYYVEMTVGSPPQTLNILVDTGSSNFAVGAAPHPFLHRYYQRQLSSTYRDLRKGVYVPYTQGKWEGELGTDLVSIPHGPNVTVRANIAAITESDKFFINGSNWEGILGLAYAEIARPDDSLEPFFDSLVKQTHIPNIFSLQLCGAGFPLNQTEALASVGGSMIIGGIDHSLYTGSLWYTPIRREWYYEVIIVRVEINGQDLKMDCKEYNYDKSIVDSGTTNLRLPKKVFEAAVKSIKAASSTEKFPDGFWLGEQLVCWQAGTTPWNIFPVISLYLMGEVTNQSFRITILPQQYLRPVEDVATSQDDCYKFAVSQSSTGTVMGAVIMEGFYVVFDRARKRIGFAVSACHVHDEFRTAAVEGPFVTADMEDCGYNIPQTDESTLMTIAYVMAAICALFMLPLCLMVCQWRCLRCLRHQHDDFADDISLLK
# protocol: cell-based or functional assay
Please assign class 0 whenever IC50, Abeta x-40 in mouse cortical neurons is at or above 4 nM, and class 1 whenever it is below.

binder	label.value
6296 (antibody, V domains shown, anti-BACE1 IgG) VH: QLQLQESGPGLVKPSETLSLTCTVSGGSISSSSYYWGWIRQPPGKGLEWIGNIYYSGSTYYNPSLRGRVTISVDTSKNQFSLKLSSVTAADTAVYYCARLGHGYNYFDLWGRGTLVTVSS VL: EIVLTQSPATLSLSPGERATLSCRASQSVSSYLAWFQQKPGQAPRLLIYDASNRATGIPARFSGSGSGTDFTLTISSLEPEDFAVYYCQQVYVWPPRTFGGGTKVEIK	class 0
5988 (antibody, V domains shown, anti-BACE1 IgG) VH: QVQLVQSGAEVKKPGSSVKVSCKASGGTLSGYAISWVRQAPGQGLEWMGNIIPGFGTANYAQKSQGRVTITADESTSTAYMELSSLRSEDTAVYYCARSGGTRYGMLDVWGQGTMVTVSS VL: GIVMTQSPATLSVSPGERATLSCRASQSVGSNLAWYQQKPGQAPRLLIYGASTRATGIPARFSGSGSGTEFTLTISSLQSEDFAVYYCQQLYTWPPRTFGGGTKVEIK	class 1
6274 (antibody, V domains shown, anti-BACE1 IgG) VH: QVQLVQSGAEVKKPGSSVKVSCKASGGTFSGYGISWVRQAPGQGLEWMGNIIPGFGTANYAQKFQGRVTITADESTSTAYMELSSLRSEDTAVYYCARSGGTKYGMLDVWGQGTMVTVSS VL: EIVMTQSPATLSVSPGERATLSCRASQSVSSHLAWYQQKPGQAPRLLIYGASTRATGIPARFSGSGSGTEFTLTISSLQSEDFAVYYCQQLILWPPRTFGGGTKVEIK	class 0
5903 (antibody, V domains shown) VH: QLQLQESGPGLVKPSETLSLTCTVSGGSISSSSYYWGWIRQPPGKGLEWIGMIYYSGSTWYNPSLKSRVTISVDTSKNQFSLKLSSVTAADTAVYYCARVGHGISYFDLWGRGTLVTVSS VL: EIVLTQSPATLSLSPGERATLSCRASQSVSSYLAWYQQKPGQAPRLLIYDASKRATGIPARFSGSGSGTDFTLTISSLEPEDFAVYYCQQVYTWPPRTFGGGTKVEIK	class 1
6288 (antibody, V domains shown, anti-BACE1 IgG) VH: QLQLQESGPGLVKPSETLSLTCTVSGGSTSSSSYYWGWIRQPPGKGLEWIGSIYRSGSTYYNPSLRSRVTISVDTSKNQFSLKLSSVTAADTAVYYCARVGHGISYFDLWGRGTLVTVSS VL: EIVLTQSPATLSLSPGERATLSCRASQSVSSYLAWYQQKPGQAPRLLIYDASNRATGIPARFSGSGSGTDFTLTISSLEPEDFAVYYCQQSLTWPPRTFGGGTKVEIK	class 0
